compounds and their reported MIC
system: Staphylococcus epidermidis H 6966/08; experiment: In vitro antibacterial susceptibility testing (broth microdilution); details: H6966/08, 24 h, read-out: MIC SE

| structureString | MIC |
| --- | --- |
| CC(C)[C@H](NC(=O)c1ccc(Cl)cc1O)C(=O)Nc1ccc(Cl)cc1 | > 500 µM |
| O=C(N[C@H](Cc1ccccc1)C(=O)Nc1ccc(Br)cc1)c1cc(Cl)ccc1O | 62.5 µM |
| CC(C)[C@@H](NC(=O)c1cc(Cl)ccc1O)C(=O)Nc1ccc(Br)cc1 | > 125 µM |
| CC(C)[C@H](NC(=O)c1cc(Cl)ccc1O)C(=O)Nc1cccc(Cl)c1 | > 125 µM |
| CC(C)[C@@H](NC(=O)c1cc(Cl)ccc1O)C(=O)Nc1ccc(Cl)cc1 | 31.2 µM |
| O=C(N[C@H](Cc1ccccc1)C(=O)Nc1ccc(Cl)cc1)c1cc(Cl)ccc1O | > 125 µM |
| C[C@@H](NC(=O)c1cc(Cl)ccc1O)C(=O)Nc1ccc(Cl)cc1 | > 500 µM |
| O=C(N[C@H](Cc1ccccc1)C(=O)Nc1cccc(Cl)c1)c1cc(Cl)ccc1O | > 500 µM |
| CC(C)[C@H](NC(=O)c1cc(Cl)ccc1O)C(=O)Nc1ccc(Cl)c(Cl)c1 | > 500 µM |
| O=C(N[C@@H](Cc1ccccc1)C(=O)Nc1ccc(Br)cc1)c1cc(Cl)ccc1O | > 125 µM |
| O=C(N[C@@H](Cc1ccccc1)C(=O)Nc1cccc(Cl)c1)c1cc(Cl)ccc1O | > 500 µM |
| O=C(CNC(=O)c1cc(Cl)ccc1O)Nc1ccc(Cl)c(Cl)c1 | > 125 µM |
| C[C@H](NC(=O)c1ccc(Cl)cc1O)C(=O)Nc1ccc(Cl)cc1 | 250 µM |
| CC(C)[C@H](NC(=O)c1cc(Cl)ccc1O)C(=O)Nc1ccc(Br)cc1 | > 125 µM |
| O=C(N[C@@H](Cc1ccccc1)C(=O)Nc1ccc(Cl)cc1)c1cc(Cl)ccc1O | > 500 µM |
| CC(C)[C@@H](NC(=O)c1cc(Cl)ccc1O)C(=O)Nc1ccc(Cl)c(Cl)c1 | > 500 µM |
| CC(C)[C@@H](NC(=O)c1ccc(Cl)cc1O)C(=O)Nc1ccc(Cl)cc1 | > 500 µM |
| O=C(CNC(=O)c1cc(Cl)ccc1O)Nc1cccc(Cl)c1 | > 250 µM |
| O=C(N[C@H](Cc1ccccc1)C(=O)Nc1ccc(Cl)c(Cl)c1)c1cc(Cl)ccc1O | > 500 µM |

These entries and their values trace back to paper PMC6259751.
